Origin of the recorded values: ChEMBL document CHEMBL3044948

system: Echinochloa oryzicola; assay: Herbicidal activity against Echinochloa oryzicola at 1 g a.i/a measured after 3 weeks; assay type: functional, organism-based
Activity calls are given as the source filed them. The calls are words filed in the database; no cut-off is given here.
Outcomes you can answer with include only these: active, inactive

Before answering, review these 5 worked examples.
# SMILES, CLASS ASSIGNMENT
data = [
    ("C=C(c1ccccc1)N(C(=O)CCl)c1c(C)cccc1CC", "active"),
    ("CCN(C(=O)CCl)C(=C(C)C)c1ccccc1", "active"),
    ("C=C(c1ccccc1C)N(C(=O)CCl)c1c(C)cccc1C", "active"),
    ("C=C(c1ccc(OC)cc1)N(C(=O)CCl)c1c(C)cccc1C", "inactive"),
    ("C=CCN(C(=O)CCl)/C(=C/C)c1ccccc1", "inactive"),
]

API: the following record is the query input.
// param item: "C=C(c1ccc(C#N)cc1)N(C(=O)CCl)c1c(C)cccc1C" ; yields the recorded call
inactive
